Form field: pIC50 (one value per entry).
target: muscarinic acetylcholine receptors; assay: Inhibition of specific binding of 3H-Oxotremorine-M (3H-Oxo) to rat cortex membranes; conditions: 1.0 nM 3H-Oxotremorine, 30 min, 25° C., pH 7.4
pIC50: −log10 of the molar value.
observation-type: pIC50

[[record]]
compound = "FC(F)(F)Oc1ccc(CSc2nccnc2O[C@@H]2CN3CCC[C@H]2C3)cc1 (relative stereo) [Compound 38]"
readout_value = 8.21

[[record]]
compound = "c1cnc(O[C@H]2CN3CCC[C@@H]2C3)cn1 (relative stereo) [Compound 21]"
readout_value = 7.59

[[record]]
compound = "COCCSc1nccnc1O[C@@H]1CN2CCC[C@H]1C2 (relative stereo) [Compound 41]"
readout_value = 8.49

[[record]]
compound = "CC(C)CSc1nccnc1O[C@@H]1CN2CCC[C@H]1C2 (relative stereo) [Compound 31]"
readout_value = 8.47

[[record]]
compound = "FC(F)(F)CSc1cncc(O[C@@H]2CN3CCC[C@H]2C3)n1 (relative stereo) [Compound 40]"
readout_value = 7.22

[[record]]
compound = "C/C=C/CSc1nccnc1O[C@@H]1CN2CCC[C@H]1C2 (relative stereo) [Compound 34]"
readout_value = 8.70

[[record]]
compound = "CC(C)CCSc1nccnc1O[C@@H]1CN2CCC[C@H]1C2 (relative stereo) [Compound 37]"
readout_value = 8.89

[[record]]
compound = "CCCCSc1nccnc1O[C@@H]1CN2CCC[C@H]1C2 (relative stereo) [Compound 24]"
readout_value = 8.66

[[record]]
compound = "CCCSc1cncc(O[C@@H]2CN3CCC[C@H]2C3)n1 (relative stereo) [Compound 39]"
readout_value = 8.00

[[record]]
compound = "FC(F)(F)CSc1nccnc1O[C@@H]1CN2CCC[C@H]1C2 (relative stereo) [Compound 33]"
readout_value = 8.82

[[record]]
compound = "CCSc1nccnc1O[C@@H]1CN2CCC[C@H]1C2 (relative stereo) [Compound 32]"
readout_value = 8.41

[[record]]
compound = "CCCCCSc1nccnc1O[C@@H]1CN2CCC[C@H]1C2 (relative stereo) [Compound 30]"
readout_value = 8.36

[[record]]
compound = "C=CCSc1nccnc1O[C@@H]1CN2CCC[C@H]1C2 (relative stereo) [Compound 36]"
readout_value = 9.47

[[record]]
compound = "C(=Cc1ccccc1)CSc1nccnc1O[C@@H]1CN2CCC[C@H]1C2 (relative stereo) [Compound 42]"
readout_value = 8.04

[[record]]
compound = "CC(C)=CCCSc1nccnc1O[C@@H]1CN2CCC[C@H]1C2 (relative stereo) [Compound 43]"
readout_value = 8.09

[[record]]
compound = "FC(F)(F)CCCSc1nccnc1O[C@@H]1CN2CCC[C@H]1C2 (relative stereo) [Compound 35]"
readout_value = 8.49

[[record]]
compound = "Clc1cncc(O[C@@H]2CN3CCC[C@H]2C3)n1 (relative stereo) [Compound 22]"
readout_value = 6.85

[[record]]
compound = "CCCSc1nccnc1O[C@@H]1CN2CCC[C@H]1C2 (relative stereo) [Compound 29]"
readout_value = 8.77

[[record]]
compound = "CCCCOc1nccnc1O[C@@H]1CN2CCC[C@H]1C2 (relative stereo) [Compound 23]"
readout_value = 8.31


Hey, just so you know, these numbers are from patent US6194416A.
